The origin of these recorded values is patent US20210139565A1.

# Measured On: T1, Y. pestis F1 protein (Yersinia pestis KIM5, UniProt P26948 22-170)
# T1 construct: also called F1 antigen; Fl
# Measurement Protocol: SPR, BIACORE, F1 immobilized on CM5 chip

- Binder: "3F59 (VHH) VHH: QVQLQESGGGLVQPGGSLRLSCAASGFTFSSYAMSWVRLAPGKGLEWVSTINIAGGITSYADSVKGRFTISRDNAKNTLYLQMNSLKPEDTAVYYCAKTAANWSAQRGQGTQVTVSS"
  Kd (nM): 5.9
- Binder: "3F85 (VHH) VHH: QVQLQESGGGLVQPGGSLRLSCAVSGMMYIRYTMRWYRQAPGKQREWVAVVSSTGNPHYADSVKGRFTISRDNAKNTVYLQMNSLTPEDTAVYYCNTYLGSRDYWGQGTQVTVSS"
  Kd (nM): 15
- Binder: "4F1 (VHH) VHH: QVQLQESGGGLVQPGGSLSLSCSASGIIFSDYALTWYRQAPGKQREWVAQITRSQNINYTGSVKGRFTVSRDNAKNTVHLQMNSLKPEDTAVYYCHAYDGRRPPYWGQGTQVTVSS"
  Kd (nM): 520
- Binder: "3F5 (VHH) VHH: QVQLQESGGGLVQSGDSLRLSCAASGFTFSNYAMSWVRQAPGKGLEWVSTINSGGGSTSYAYSVKGRFTISRDNAKNTLYLQMNSLKPEDTAVYYCAKTASHIPLSQGTQVTVSS"
  Kd (nM): 47
- Binder: "3F61 (VHH) VHH: QVQLQESGGGLVQPGGSLRLSCSASGIIFSDYALTWYRQAPGKQREWVAQITRSQNINYTGSVKGRFTVSRDNAKNTVHLQMNSLKPEDAAVYYCHAYDGRRPPYWGQGTQVTVSS"
  Kd (nM): 68
- Binder: "4F34 (VHH) VHH: QVQLQESGGGSVQPGGSLSLSCSASGIIFSDYALTWYRQAPGKQREWVAQITRSQNINYTGSVKGRFTVSRDNAKNTVHLQMNSLKPEDTAVYYCHAYDGRRPPYWGQGTQVTVSS"
  Kd (nM): 390
